All values here come from patent US20250099420A1.

- System: parental HEK cells
- measurement.protocol: HEK parental Agonist Counterscreen Assay (non-transfected cells)
- Assay type: cell-based
- condition.notes: HEK Agonist Activity section
readout.kind: Lipophilic Efficiency (logD)
Reply briefly: the number, and no unit.

Worked examples follow.
compound=COc1cc(C(=O)NCCn2ccc3ccccc32)cc(OC)c1OC test_value=2.15
compound=COc1ccc2c(CC(=O)NNC(=O)c3cc(-c4ccccc4)no3)coc2c1 test_value=2.52
compound=COc1cc(OC)cc(C(=O)NNC(=O)CCc2ccccc2)c1 test_value=2.65
compound="CN(C)CCOc1cc(NC(=O)C2COc3ccccc3C2)ccc1-c1cn[nH]c1.O=C(O)C(F)(F)F.O=C(O)C(F)(F)F (centres unmarked)" test_value=3.26
compound=O=c1c2c([nH]c3nc(NCc4ccccc4Cl)nn13)CCC2 test_value=1.70
compound="CC(NC(=O)Cn1ncc2ccccc21)c1ccc2c(c1)OCCO2 (centres unmarked)" test_value=2.88

Which value of Lipophilic Efficiency (logD) has been reported for O=C(CC(C(=O)N1CCc2ccccc21)n1ccnc1)N1CCCCCC1 (centres unmarked) in the records?
3.15

Param item: O=C(CN1CCCN(Cc2ccc(F)cc2Cl)C1=O)NC1CCCC1
2.71

###

- Test system: parental HEK cells
- measurement.protocol: HEK parental Agonist Counterscreen Assay (non-transfected cells)
- Type: cell-based
- condition.notes: HEK Agonist Activity section
Entries annotated with measured Lipophilic Efficiency (logP)
Reply briefly: the number, and no unit.

Worked examples follow.
compound="COc1ccc(CCn2nc(-c3cccnc3)[nH]c2=O)cc1 [SR-01000335115]" test_value=2.33
compound="COc1cc(C(=O)NNC(=O)COc2ccc3ccccc3c2)cc(OC)c1OC [SR-01000056004]" test_value=2.55
compound="O=C(Cn1ncn2c(cc3sccc32)c1=O)NCCc1ccc(Cl)cc1 [SR-01000099712]" test_value=2.50

Note: attention shifts to another entry.
Which value of Lipophilic Efficiency (logP) has been reported for O=C(CN1CC(=O)N(Cc2ccc(O)cc2)C(c2ccccc2Cl)C1=O)NCc1ccco1 (stereo not shown) [SR-01000583711] in the records?
1.87

###

Entries annotated with measured Hill Slope
- test.target: GPR139 (Homo sapiens)
- Sequence (Q6DWJ6 1-353): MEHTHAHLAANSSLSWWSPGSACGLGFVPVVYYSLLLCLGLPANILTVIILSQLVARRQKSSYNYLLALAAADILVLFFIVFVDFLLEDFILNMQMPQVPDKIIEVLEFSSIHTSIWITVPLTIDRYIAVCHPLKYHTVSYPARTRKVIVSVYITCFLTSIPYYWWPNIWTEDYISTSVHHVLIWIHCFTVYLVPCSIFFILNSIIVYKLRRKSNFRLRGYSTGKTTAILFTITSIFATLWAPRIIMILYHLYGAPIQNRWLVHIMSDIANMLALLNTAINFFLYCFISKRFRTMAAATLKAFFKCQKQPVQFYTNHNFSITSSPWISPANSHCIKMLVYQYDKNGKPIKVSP
- measurement.protocol: GPR139 Agonist titration / agonist counterscreen assay (calcium detection, HEK-GPR139 cells)
- Assay type: cell-based
- Design: expressed in transfected cells; host or cells: HEK Aequorin cells, Maxcyte transient transfection
- condition.notes: GPR139 Agonist Activity

Worked examples follow.
compound="O=C(C1CC1)N1CCc2cc(S(=O)(=O)NCC3COc4ccccc4O3)ccc21 (stereo not shown)" test_value=1.58
compound=CN(C)c1ccc(NC(=O)Cn2cc(C=O)c3ccccc32)cc1 test_value=1.64
compound="COC(=O)C(CCSC)NC(=O)C1CC(Cc2ccc3c(c2)OCO3)=NO1 (stereo not shown)" test_value=0.69

Note: attention shifts to another entry.
Which value of Hill Slope has been reported for CN(CCC(=O)NCC1Cc2cccc(-c3ccccn3)c2O1)C1CCS(=O)(=O)C1 (stereo not shown) in the records?
0.62
